- target: Nuclear receptor ROR-alpha (Homo sapiens) (UniProt P35398)
- Sequence (P35398 whole entry, looked up): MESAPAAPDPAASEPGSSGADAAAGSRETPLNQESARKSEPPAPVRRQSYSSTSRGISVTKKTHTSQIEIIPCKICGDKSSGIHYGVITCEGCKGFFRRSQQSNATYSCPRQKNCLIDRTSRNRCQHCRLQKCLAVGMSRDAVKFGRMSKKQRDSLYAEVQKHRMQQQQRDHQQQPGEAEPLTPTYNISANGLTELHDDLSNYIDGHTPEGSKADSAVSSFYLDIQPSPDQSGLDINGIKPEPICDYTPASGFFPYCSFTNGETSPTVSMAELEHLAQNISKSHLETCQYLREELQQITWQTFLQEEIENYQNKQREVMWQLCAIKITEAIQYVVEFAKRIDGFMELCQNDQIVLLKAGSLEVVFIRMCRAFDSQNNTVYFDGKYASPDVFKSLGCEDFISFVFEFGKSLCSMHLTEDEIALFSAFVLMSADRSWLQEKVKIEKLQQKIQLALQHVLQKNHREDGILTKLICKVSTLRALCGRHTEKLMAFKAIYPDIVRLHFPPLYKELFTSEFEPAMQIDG
- assay.explanation: suppression of basal RORA-driven reporter transcription – cell-based, luminescence, primary screen (AID 561);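 further: 0% = RORA-transfected cells with DMSO and 100% = mock-transfected cells lacking RORA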
- condition.summary: CHO-K1 Gal4-RORA LBD luciferase reporter, at 10 µM
In all, about 65,000 compounds went through this assay and about 280 (0.43%) were called active.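 How the source made its calls: active means inhibition above the mean of all tested compounds plus 3 SD (cut at about 52% in these data); inactive means the rest.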 Many of the other results were omitted from the sample, so actives are more common in it than they were.
Possible outcomes: Y (active), N (inactive)

given.smiles	label.value
COc1cc(-n2c(C)nc3cc(C(=O)NCc4ccco4)ccc32)cc(OC)c1OC	N
Cc1cc(C(=O)OCC(=O)NCc2ccco2)c(C)n1-c1ccccc1	N
CC(C)c1ccc(NC(=O)NC2CCCCC2)cc1	N
CC(=O)Nc1ccc(S(=O)(=O)N2CCN(CCCOc3cc(C)ccc3C)CC2)cc1	N
COc1ccc(-c2nc(-c3ccccc3)no2)c(OC)c1	Y
CCN(CC)S(=O)(=O)c1cc(C(=O)Nc2ccccn2)ccc1C	N

====

- target: Nuclear receptor ROR-alpha (Homo sapiens)
- assay.explanation: suppression of basal RORA-driven reporter transcription – cell-based, luminescence, primary screen (AID 561);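 further: 0% = RORA-transfected cells with DMSO and 100% = mock-transfected cells lacking RORA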
- condition.summary: CHO-K1 Gal4-RORA LBD luciferase reporter, at 10 µM, active compounds read high
The whole screen tested about 65,000 compounds, of which about 280 (0.43%) were called active. The full list was thinned out, with actives kept by preference.

compound	inhibition [%]
Fc1c(F)c(C(F)(F)F)c(F)c(F)c1N1CCN(c2ccc3nnc(C(F)(F)F)n3n2)CC1	6.9
COc1ccc(OC)c(Nc2nc(-c3ccc(O)c(O)c3)cs2)c1	74.4
CN(C)c1cc(N)c2ccccc2n1 (tested in a mixture with another compound)	-3.2
c1ccc(Nc2nc(-c3ccncc3)cs2)nc1	-50.9
COc1ccc(OC)c(CNC(=O)C2CCCN(c3nc4ccccc4o3)C2)c1 (stereo unspecified)	33.3
Cc1ccc(CNC(=O)C2CCCN(S(C)(=O)=O)C2)cc1 (stereo unspecified)	-3.7
COc1ccc(C(=O)Nc2nncs2)c(OC)c1	-62.9
COc1ccc(N=Cc2c(O)[nH]c3ccccc23)cc1OC	-55.7
COc1ccc(NC(=O)c2cccc(NC(=O)c3ccco3)c2)c(OC)c1	-19
O=C(C1CCC1)N1CCc2cc(S(=O)(=O)NCc3cccnc3)ccc21	-16.5
Cc1cccc(NC(=O)CSc2nc3c(c(=O)[nH]2)CCC3)c1C	0.6

====

- target: Nuclear receptor ROR-alpha (Homo sapiens)
- assay.explanation: suppression of basal RORA-driven reporter transcription – cell-based, luminescence, primary screen (AID 561);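 further: 0% = RORA-transfected cells with DMSO and 100% = mock-transfected cells lacking RORA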
- condition.summary: CHO-K1 Gal4-RORA LBD luciferase reporter, at 10 µM, active compounds read high
The campaign covered roughly 65,000 compounds. About 280 (0.43%) were called active. Shown is part of a subset that was picked to be rich in actives.
Record Satisfied whenever inhibition is at -10% or higher; record Not satisfied when lower.

compound	label.value
CCOC(=O)CCCNC(=O)CN1C(=O)NC(CCc2ccccc2)C1=O (stereo not drawn)	Satisfied
Cc1ccc(Cc2nc(-c3cccc(C)c3)no2)cc1	Not satisfied
COc1cccc(C2/C(=C(/O)c3ccncc3)C(=O)C(=O)N2CCCN(C)C)c1 (stereo not drawn)	Satisfied
Cc1cc(C)nc(NC(=O)Nc2ccccc2C(F)(F)F)n1	Not satisfied
COCCCN(C(=O)Cn1ncc2c(=O)oc3ccc(C)cc3c21)C(C)c1ccncc1 (stereo not drawn)	Satisfied
COc1cc(C(=O)Nc2oc(-c3ccccc3)c(-c3ccccc3)c2C#N)cc(OC)c1OC	Not satisfied
CCOc1ccc(Nc2oc(Cc3ccccc3)nc2C#N)cc1	Not satisfied
CC(=O)Oc1ccc(C(=O)Nc2nccs2)cc1	Not satisfied
O=C(NC1=NCCS1)c1ccc(Cl)s1	Not satisfied
COc1ccccc1CNC(=O)CCCNS(=O)(=O)c1cccc2nsnc12	Satisfied
Cc1ccc(NC(=O)c2nc[nH]c2C(=O)N2CCCCC2)c(C(=O)c2ccccc2)c1	Satisfied
COc1ccccc1C(=O)C(O)c1ccccc1OC (stereo not drawn)	Not satisfied
CNC(=O)CSc1nnnn1-c1ccc(C)cc1C	Satisfied
